Tested on: Mus musculus
Assay: Effect on Motor activity in mouse following i.p. administration.
Assay type: functional
Conditions: ip
readout name: log10(ED50) (log10 of the value in mg/kg)
Plainly stated, the numbers are log10 of ED50 given in mg/kg.

# annotated cases, reported log10(ED50) shown
{"columns": ["molecule", "assay result"],
 "data": [
  ["CC(C)(CNc1ncnc2c1ncn2C1O[C@H](CO)[C@@H](O)[C@H]1O)c1ccccc1 (stereo partly drawn)", 0.83],
  ["OC[C@H]1O[C@@H](n2cnc3c(NCCCCc4ccccc4)ncnc32)[C@H](O)[C@@H]1O", 1.51],
  ["OC[C@H]1OC(n2cnc3c(NC(c4ccccc4)c4ccccc4)ncnc32)[C@H](O)[C@@H]1O (stereo partly drawn)", 1.90],
  ["OC[C@H]1O[C@@H](n2cnc3c(NCc4ccccc4)ncnc32)[C@H](O)[C@@H]1O", 1.34],
  ["OC[C@H]1OC(n2cnc3c(NCC(c4ccccc4)(c4ccccc4)c4ccccc4)ncnc32)[C@H](O)[C@@H]1O (stereo partly drawn)", 1.90]
]}

# per-item lookup of log10(ED50); items listed below
1. CC(CNc1ncnc2c1ncn2C1O[C@H](CO)[C@@H](O)[C@H]1O)(c1ccccc1)c1ccccc1 (stereo partly drawn)
2. OC[C@H]1O[C@@H](n2cnc3c(NCCCc4ccccc4)ncnc32)[C@H](O)[C@@H]1O
3. OC[C@H]1O[C@@H](n2cnc3c(NCCc4ccccc4)ncnc32)[C@H](O)[C@@H]1O

Output line:
1. 0.85
2. 1.28
3. 1.18

* * *

System: Mus musculus
Assay: Effect on Ataxia in mouse following i.p. administration.
Type: functional
Settings: ip
readout name: ED50 (mg/kg)
Numbers only, in mg/kg.

# annotated cases, reported ED50 shown
{"columns": ["compound", "ED50 (mg/kg)"],
 "data": [
  ["O=C(CCCN1CCC(O)(c2ccc(Cl)cc2)CC1)c1ccc(F)cc1", 12],
  ["CSc1ccc2c(c1)N(CCC1CCCCN1C)c1ccccc1S2 (centres undefined)", 13],
  ["OC[C@H]1O[C@@H](n2cnc3c(NCC(c4ccccc4)c4ccccc4)ncnc32)[C@H](O)[C@@H]1O", 145],
  ["CC(CNc1ncnc2c1ncn2[C@@H]1O[C@H](CO)[C@@H](O)[C@H]1O)c1ccccc1 (mixture of isomers)", 7],
  ["C[C@@H](Cc1ccccc1)Nc1ncnc2c1ncn2[C@@H]1OC(CO)[C@@H](O)[C@H]1O (single isomer, unassigned)", 75]
]}

Input line: Request body: readout ED50, system Mus musculus, query OC[C@H]1O[C@@H](n2cnc3c(Nc4ccccc4)ncnc32)[C@H](O)[C@@H]1O . Return the value.
Output line: 30

* * *

Measured Ki (Adenosine A2 receptor (Rattus norvegicus, UniProt P29276+P30543))
Answers are plain numbers, in nM.

{"columns": ["compound", "Ki / nM"],
 "data": [
  ["CC(CNc1ncnc2c1ncn2C1O[C@H](CO)[C@@H](O)[C@H]1O)(c1ccccc1)c1ccccc1 (some centres undefined)", 30],
  ["CC(CNc1ncnc2c1ncn2[C@@H]1O[C@H](CO)[C@@H](O)[C@H]1O)c1ccccc1 (mixture of isomers)", 98],
  ["OC[C@H]1OC(n2cnc3c(NCCCC(c4ccccc4)c4ccccc4)ncnc32)[C@H](O)[C@@H]1O (some centres undefined)", 4700]
]}

Okay, now this compound:
Input line: Need Ki of OC[C@H]1OC(n2cnc3c(NCC(c4ccccc4)(c4ccccc4)c4ccccc4)ncnc32)[C@H](O)[C@@H]1O (some centres undefined) , thanks.
Output line: 26000

* * *

Tested on: Mus musculus
Test: Effect on Ataxia in mouse following i.p. administration.
Type: functional
Conditions: ip
Hi there, I'd appreciate the recorded ED50 for every entry that follows.
Answers are plain numbers, in mg/kg.

{"columns": ["molecule", "assay result"],
 "data": [
  ["CC(C)(CNc1ncnc2c1ncn2C1O[C@H](CO)[C@@H](O)[C@H]1O)c1ccccc1 (some centres undefined)", 30]
]}

Okay, now this molecule:
Input line: Request body: readout ED50, system Mus musculus, query C[C@H](Cc1ccccc1)Nc1ncnc2c1ncn2[C@@H]1O[C@H](CO)[C@@H](O)[C@H]1O [(R)-PIA] . Return the value.
Output line: 2

* * *

Biological target: Adenosine receptor A1 (Rattus norvegicus, UniProt P25099)
Sequence (P25099 whole entry): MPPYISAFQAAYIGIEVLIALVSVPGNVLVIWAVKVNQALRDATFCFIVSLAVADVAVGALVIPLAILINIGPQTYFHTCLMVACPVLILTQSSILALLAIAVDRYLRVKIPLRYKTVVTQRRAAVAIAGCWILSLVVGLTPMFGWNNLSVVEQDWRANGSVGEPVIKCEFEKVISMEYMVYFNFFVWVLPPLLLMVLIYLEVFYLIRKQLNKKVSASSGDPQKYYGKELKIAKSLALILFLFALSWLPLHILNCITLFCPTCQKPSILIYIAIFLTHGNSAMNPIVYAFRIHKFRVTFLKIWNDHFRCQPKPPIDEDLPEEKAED
Hi there, I'd appreciate the recorded Ki for every entry that follows.
Numbers only, in nM.

{"columns": ["compound", "experimental target", "value units", "Ki"],
 "data": [
  ["OC[C@H]1OC(n2cnc3c(NCCCCC(c4ccccc4)c4ccccc4)ncnc32)[C@H](O)[C@@H]1O (stereo partly specified)", "Adenosine receptor A1 (Rattus norvegicus, UniProt P25099)", "nM", 146],
  ["OC[C@H]1O[C@@H](n2cnc3c(NCCc4ccccc4)ncnc32)[C@H](O)[C@@H]1O", "Adenosine receptor A1 (Rattus norvegicus, UniProt P25099)", "nM", 12.7],
  ["CC(C)(CNc1ncnc2c1ncn2C1O[C@H](CO)[C@@H](O)[C@H]1O)c1ccccc1 (stereo partly specified)", "Adenosine receptor A1 (Rattus norvegicus, UniProt P25099)", "nM", 16.2],
  ["OC[C@H]1O[C@@H](n2cnc3c(NCC(c4ccccc4)c4ccccc4)ncnc32)[C@H](O)[C@@H]1O", "Adenosine receptor A1 (Rattus norvegicus, UniProt P25099)", "nM", 6.8],
  ["OC[C@H]1O[C@@H](n2cnc3c(Nc4ccccc4)ncnc32)[C@H](O)[C@@H]1O [N6-PHENYLADENOSINE]", "Adenosine receptor A1 (Rattus norvegicus, UniProt P25099)", "nM", 4.6]
]}

Okay, now this compound:
Input line: Request body: readout Ki, system Adenosine receptor A1 (Rattus norvegicus, UniProt P25099), query OC[C@H]1O[C@@H](n2cnc3c(NCCCc4ccccc4)ncnc32)[C@H](O)[C@@H]1O . Return the value.
Output line: 23

* * *

Tested on: Mus musculus
Test: Effect on Motor activity in mouse following i.p. administration.
Assay type: functional
Conditions: ip
readout name: ED50 (mg/kg)
One number for each entry, in mg/kg.

# annotated cases, reported ED50 shown
{"columns": ["molecule", "assay result"],
 "data": [
  ["OC[C@H]1O[C@@H](n2cnc3c(Nc4ccccc4)ncnc32)[C@H](O)[C@@H]1O", 25],
  ["OC[C@H]1OC(n2cnc3c(NCCCC(c4ccccc4)c4ccccc4)ncnc32)[C@H](O)[C@@H]1O (stereo not given in full)", 32],
  ["O=C(CCCN1CCC(O)(c2ccc(Cl)cc2)CC1)c1ccc(F)cc1", 0.27]
]}

# per-item lookup of ED50; items listed below
1. C[C@@H](Cc1ccccc1)Nc1ncnc2c1ncn2[C@@H]1OC(CO)[C@@H](O)[C@H]1O (single isomer, unassigned)
2. OC[C@H]1OC(n2cnc3c(NCCCCC(c4ccccc4)c4ccccc4)ncnc32)[C@H](O)[C@@H]1O (stereo not given in full)
3. C[C@H](Cc1ccccc1)Nc1ncnc2c1ncn2[C@@H]1O[C@H](CO)[C@@H](O)[C@H]1O [(R)-PIA]
4. OC[C@H]1O[C@@H](n2cnc3c(NCC(c4ccccc4)c4ccccc4)ncnc32)[C@H](O)[C@@H]1O
5. CC(CNc1ncnc2c1ncn2[C@@H]1O[C@H](CO)[C@@H](O)[C@H]1O)c1ccccc1 (mixture of isomers)
6. OC[C@H]1OC(n2cnc3c(NCCC(c4ccccc4)c4ccccc4)ncnc32)[C@H](O)[C@@H]1O (stereo not given in full)
7. CSc1ccc2c(c1)N(CCC1CCCCN1C)c1ccccc1S2 (stereo not given)

Output line:
16
30
0.8
1.3
0.5
33
3.3
